All values here come from PubChem BioAssay (NCI).

tested on: SNB-19 CNS; assay: NCI tumour cell line growth inhibition, 48 h
measure: TGI

O=C(CC12CC3CC(CC(C3)C1)C2)NCCOCCOCCOCCNC(=O)c1cc2c(o1)C(=O)c1ccccc1C2=O; 7.63 µM
CN1CCCCCC(=N\O)/C(=N/O)CCCCC1; > 100 µM
Cc1cc(-c2nnc(N)nc2-c2ccc(F)cc2)cc(Cl)n1; > 100 µM

Q: Quick one: TGI of `O=C(c1ccco1)N(C(=S)N1CCN(c2ccccn2)CC1)C1CCCCC1` ?
Result: > 100 µM

Q: Quick one: TGI of `NC(=O)c1ccc2c(-c3ccnc(NCCCO)n3)c(-c3ccc(F)cc3)nn2c1` ?
Result: > 25 µM

Q: Quick one: TGI of `Nc1nc(=S)[nH]c(C(=O)Nc2ccc(Cl)c(Cl)c2)c1-c1ccc(Cl)cc1` ?
Result: > 100 µM

Q: Quick one: TGI of `[O-][n+]1onc(-c2ccccc2)c1CN1CCOCC1` ?
Result: > 100 µM

Q: Quick one: TGI of `Cc1cc(I)cc(CN(C)CCN2CCCC2)c1O` ?
Result: > 100 µM

Q: Quick one: TGI of `O=C1c2ccccc2C2=Nc3ccncc3CN12` ?
Result: > 100 µM

Q: Quick one: TGI of `CC1=C(C(=O)NCCc2ccccc2)CC(C(=O)NCCc2ccccc2)=C(C)N1` ?
Result: 72.5 µM

Q: Quick one: TGI of `O=C([CH-]C(=O)c1ccccc1)c1ccccc1.O=C([CH-]C(=O)c1ccccc1)c1ccccc1.O=C([CH-]C(=O)c1ccccc1)c1ccccc1.[OH3+].[Y+3]` ?
Result: 56.4 µM

Q: Quick one: TGI of `O=c1ccnc2c1ccc1[nH]cccc12` ?
Result: > 100 µM

Q: Quick one: TGI of `Cc1occc1C(=S)Nc1ccc(Cl)c(/C=N/OC(C)C)c1` ?
Result: > 67.4 µM

Q: Quick one: TGI of C=CCC(C(=O)O)c1ccccc1 (stereo unspecified) ?
Result: > 100 µM

Q: Quick one: TGI of `COC(=O)c1ccc(N=NN(C)COc2ccc([N+](=O)[O-])cc2)cc1` ?
Result: > 100 µM

Q: Quick one: TGI of `COc1cc(NP(=O)(Oc2ccccc2)Oc2ccccc2)ccc1Nc1c2ccccc2nc2c1[nH]c1ccccc12` ?
Result: > 100 µM

* * *

test system: NCI-H522 lung; assay: NCI tumour cell line growth inhibition, 48 h
measure: TGI

O=C1c2c(ccc3c2CCC3)CC12Cc1cc3c(cc1C2)CCC3; > 100 µM

Q: Quick one: TGI of `COC(=O)C12CC3CC(C1)CC(C(=O)OC)(C3)C2` ?
Result: > 100 µM

Q: Quick one: TGI of `O=C(Nc1cc[c]([Sb](=[O])([OH])[OH])cc1)c1ccccc1` ?
Result: > 100 µM

Q: Quick one: TGI of `C=C[C@H]1CCC/C=C/[C@@H]2C[C@H](O)C[C@H]2[C@H](O)/C=C/C(=O)O1` ?
Result: 0.356 µM

Q: Quick one: TGI of Cc1ccc(Nc2nc(N)nc3c2ncn3C2OC(CO)C(O)C2O)cc1 (stereo not given) ?
Result: > 100 µM

Q: Quick one: TGI of `COc1ccc(-c2nc3ncccn3c2/C=C/C(=O)c2cc(OC)c(OC)c(OC)c2)cc1` ?
Result: 3.89 µM

Q: Quick one: TGI of `O=P([O-])(O)OP(=O)([O-])O.[NH-][C@@H]1CCCC[C@H]1[NH-].[Pt+4]` ?
Result: > 100 µM

Q: Quick one: TGI of `COc1cc2cc(C(=O)Nc3cc(N)c4ccccc4c3CCCl)[nH]c2c(OC)c1OC` ?
Result: 0.271 µM

Q: Quick one: TGI of `COc1cc(C(=O)C/C(CCC(=O)Nc2ccc(Cl)cc2C)=N/NC(=O)C(N)=O)ccc1O` ?
Result: > 100 µM

Q: Quick one: TGI of `Cc1cccc(Cl)c1NC(=O)/C=C/c1ccccc1` ?
Result: > 100 µM
